ASSAYED TARGET: UniProt:O70526
Sequence (O70526 whole entry): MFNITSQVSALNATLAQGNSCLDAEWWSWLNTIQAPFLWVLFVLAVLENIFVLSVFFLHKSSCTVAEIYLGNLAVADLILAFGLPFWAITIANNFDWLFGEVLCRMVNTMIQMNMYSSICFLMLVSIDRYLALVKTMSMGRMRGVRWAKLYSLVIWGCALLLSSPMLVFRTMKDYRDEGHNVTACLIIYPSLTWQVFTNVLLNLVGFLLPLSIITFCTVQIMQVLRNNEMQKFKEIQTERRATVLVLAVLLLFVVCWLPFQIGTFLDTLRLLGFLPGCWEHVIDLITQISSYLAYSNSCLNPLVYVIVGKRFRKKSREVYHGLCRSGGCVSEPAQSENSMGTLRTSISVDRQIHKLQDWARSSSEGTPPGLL
ASSAY SUMMARY: cell-based
TEST CONDITIONS: vs BK; Inactive = no detectable antagonistic effect at ≦ 10 μg/ml; F.ag. full agonist; P.ag. partial agonist
Non-standard residues stand in square brackets, D forms with d. Residues, ends and D or L forms follow the SMILES beside them. Hyp = O=C(O)[C@@H]1C[C@@H](O)CN1; Tic = O=C(O)[C@@H]1Cc2ccccc2CN1
REPORTED ENDPOINT: G.P.I. pA2

CC[C@H](C)[C@H](NC(=O)[C@@H]1Cc2ccccc2CN1C(=O)[C@H](CO)NC(=O)[C@H](Cc1ccccc1)NC(=O)CNC(=O)[C@@H]1CCCN1C(=O)[C@@H]1CCCN1C(=O)[C@H](CCCNC(=N)N)NC(=O)[C@H](N)CCCNC(=N)N)C(=O)O [Compound 14, D-Arg(L-Tic^7, Ile^8)desArg^9BK] (H-[dR]RPPGFS[Tic]I-OH; N-terminus and C-terminus assumed)    Inactive
CC(C)C[C@H](NC(=O)[C@@H](Cc1ccccc1)NC(=O)[C@H](CO)NC(=O)[C@H](Cc1ccccc1)NC(=O)CNC(=O)[C@@H]1C[C@@H](O)CN1C(=O)[C@@H]1CCCN1C(=O)[C@H](CCCNC(=N)N)NC(=O)[C@H](N)CCCNC(=N)N)C(=O)O [Compound 7, D-Arg(Hyp^3, D-Phe^7, Leu^8)desArg^9BK] (H-[dR]RP[Hyp]GFS[dF]L-OH; N-terminus and C-terminus assumed)    Inactive
CC(C)C[C@H](NC(=O)[C@@H]1CCCN1C(=O)[C@H](CO)NC(=O)[C@H](Cc1ccccc1)NC(=O)CNC(=O)[C@@H]1C[C@@H](O)CN1C(=O)[C@@H]1CCCN1C(=O)[C@H](CCCNC(=N)N)NC(=O)[C@@H](N)CCCCN)C(=O)O [Compound 3, Lys(Hyp^3, Leu^8)desArg^9BK]    Inactive

---

ASSAYED TARGET: B1 receptor (Oryctolagus cuniculus)
Sequence (P48748 whole entry): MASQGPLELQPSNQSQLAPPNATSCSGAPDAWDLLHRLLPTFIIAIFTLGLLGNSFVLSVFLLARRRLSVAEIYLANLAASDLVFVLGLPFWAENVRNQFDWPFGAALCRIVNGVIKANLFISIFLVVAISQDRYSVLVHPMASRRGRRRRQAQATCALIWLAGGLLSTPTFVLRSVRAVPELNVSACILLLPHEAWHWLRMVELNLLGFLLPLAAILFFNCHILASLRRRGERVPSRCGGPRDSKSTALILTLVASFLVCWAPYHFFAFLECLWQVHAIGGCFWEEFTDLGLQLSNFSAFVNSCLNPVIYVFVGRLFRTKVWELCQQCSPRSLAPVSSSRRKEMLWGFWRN
ASSAY SUMMARY: cell-based
TEST CONDITIONS: Rb.A. pA2, apparent affinity as antagonist vs desArg9BK; antagonist applied 10 min before; Inactive = no detectable antagonistic effect at ≦ 10 μg/ml
Non-standard residues stand in square brackets, D forms with d. Residues, ends and D or L forms follow the SMILES beside them. Tyr(3,5-I2) = N[C@@H](Cc1cc(I)c(O)c(I)c1)C(=O)O; Oic = O=C(O)[C@@H]1C[C@@H]2CCCC[C@@H]2N1; d2Nal = N[C@H](Cc1ccc2ccccc2c1)C(=O)O; Hyp = O=C(O)[C@@H]1C[C@@H](O)CN1; Tic = O=C(O)[C@@H]1Cc2ccccc2CN1; dTic = O=C(O)[C@H]1Cc2ccccc2CN1; 2Thi = N[C@@H](Cc1cccs1)C(=O)O; NMeA = CN[C@@H](C)C(=O)O; Ahx = NCCCCCC(=O)O; Sar = CNCC(=O)O
// label = true (1) if Kb is not less than 0.2 µM, otherwise false (0)

Given CC[C@H](C)[C@H](NC(=O)[C@@H](Cc1ccc2ccccc2c1)NC(=O)[C@H](CO)NC(=O)[C@H](Cc1ccccc1)NC(=O)CNC(=O)[C@@H]1CCCN1C(=O)[C@@H]1CCCN1C(=O)[C@H](CCCNC(=N)N)NC(=O)[C@H](CCCCN)NC(=O)CCCCCNC(=O)[C@H](Cc1cc(I)c(O)c(I)c1)NC(=O)CNC)C(=O)O [Compound 30] (H-[Sar][Tyr(3,5-I2)][Ahx]KRPPGFS[d2Nal]I-OH; N-terminus and C-terminus assumed) , state whether its Kb is at least 0.2 µM.
false (0)

Does N=C(N)NCCC[C@@H](N)C(=O)N[C@@H](CCCNC(=N)N)C(=O)N1CCC[C@H]1C(=O)N1C[C@H](O)C[C@H]1C(=O)NCC(=O)N[C@@H](Cc1ccccc1)C(=O)N[C@@H](CO)C(=O)N[C@H](Cc1ccccc1)C(=O)N[C@@H](Cc1ccccc1)C(=O)O [Compound 6, D-Arg(Hyp^3, D-Phe^7)desArg^9BK] (H-[dR]RP[Hyp]GFS[dF]F-OH; N-terminus and C-terminus assumed) have a reported Kb of at least 0.2 µM?
true (1)

# bool: Kb of CC(=O)N[C@@H](CCCCN)C(=O)N[C@@H](CCCNC(=N)N)C(=O)N1CCC[C@H]1C(=O)N1CCC[C@H]1C(=O)NCC(=O)N[C@@H](Cc1ccccc1)C(=O)N(C)[C@@H](C)C(=O)N1CCC[C@H]1C(=O)N[C@@H](CC(C)C)C(=O)O [Compound 21, AcLys(N-MeAla^6, Leu^8)desArg^9BK, reference compound] (Ac-KRPPGF[NMeA]PL-OH; C-terminus assumed) >= 0.2 µM
true (1)

Is Kb for CC(C)C[C@H](NC(=O)[C@@H]1CCCN1C(=O)[C@H](CO)NC(=O)[C@H](Cc1ccccc1)NC(=O)CNC(=O)[C@@H]1C[C@@H](O)CN1C(=O)[C@@H]1CCCN1C(=O)[C@H](CCCNC(=N)N)NC(=O)[C@H](N)CCCNC(=N)N)C(=O)O [Compound 4, D-Arg(Hyp^3, Leu^8)desArg^9BK] at or above 0.2 µM?
true (1)

# bool: Kb of CC[C@H](C)[C@H](NC(=O)[C@@H](Cc1ccc2ccccc2c1)NC(=O)[C@H](CO)NC(=O)[C@H](Cc1ccccc1)NC(=O)CNC(=O)[C@@H]1CCCN1C(=O)[C@@H]1CCCN1C(=O)[C@H](CCCNC(=N)N)NC(=O)[C@H](CCCCN)NC(=O)CCCCCNC(=O)[C@H](Cc1ccc(O)cc1)NC(=O)CNC)C(=O)O [Compound 29, SarTyrεAhxLys(D-βNal^7, Ile^8)desArg^9BK] (H-[Sar]Y[Ahx]KRPPGFS[d2Nal]I-OH; N-terminus and C-terminus assumed) >= 0.2 µM
false (0)

Please check the record CC[C@H](C)[C@H](NC(=O)[C@@H]1Cc2ccccc2CN1C(=O)[C@H](CO)NC(=O)[C@H](Cc1ccccc1)NC(=O)CNC(=O)[C@@H]1CCCN1C(=O)[C@@H]1CCCN1C(=O)[C@H](CCCNC(=N)N)NC(=O)[C@H](N)CCCNC(=N)N)C(=O)O [Compound 14, D-Arg(L-Tic^7, Ile^8)desArg^9BK] (H-[dR]RPPGFS[Tic]I-OH; N-terminus and C-terminus assumed) and state if its Kb is at or above 0.2 µM.
true (1)

Threshold query (Kb >= 0.2 µM) on N=C(N)NCCC[C@@H](N)C(=O)N[C@@H](CCCNC(=N)N)C(=O)N1CCC[C@H]1C(=O)N1C[C@H](O)C[C@H]1C(=O)NCC(=O)N[C@@H](Cc1cccs1)C(=O)N[C@@H](CO)C(=O)N1Cc2ccccc2C[C@@H]1C(=O)N1[C@H](C(=O)O)C[C@@H]2CCCC[C@@H]21 [Compound 31, reference compound] (H-[dR]RP[Hyp]G[2Thi]S[dTic][Oic]-OH; N-terminus and C-terminus assumed)
false (0)

Determine whether this molecule has Kb no lower than 0.2 µM: CC[C@H](C)[C@H](NC(=O)[C@@H](Cc1ccc2ccccc2c1)NC(=O)[C@H](CO)NC(=O)[C@H](Cc1ccccc1)NC(=O)CNC(=O)[C@@H]1CCCN1C(=O)[C@@H]1CCCN1C(=O)[C@H](CCCNC(=N)N)NC(=O)CNC)C(=O)O [Compound 26, Sar(D-βNal^7, Ile^8)desArg^9BK] (H-[Sar]RPPGFS[d2Nal]I-OH; N-terminus and C-terminus assumed)
false (0)

I'd appreciate it if you could say whether CC(=O)N[C@@H](Cc1ccc(O)cc1)C(=O)NCCCCCC(=O)N[C@@H](CCCCN)C(=O)N[C@@H](CCCNC(=N)N)C(=O)N1CCC[C@H]1C(=O)N1CCC[C@H]1C(=O)NCC(=O)N[C@@H](Cc1ccccc1)C(=O)N[C@@H](CO)C(=O)N1CCC[C@H]1C(=O)N[C@@H](CC(C)C)C(=O)O [Compound 27, AcTyrεAhxLys(Leu^8)desArg^9BK] has Kb at least equal to 0.2 µM.
false (0)

Quick check: does CC(C)C[C@H](NC(=O)[C@@H]1CCCN1C(=O)[C@H](CO)NC(=O)[C@H](Cc1ccccc1)NC(=O)CNC(=O)[C@@H]1CCCN1C(=O)[C@@H]1CCCN1C(=O)[C@@H](N)CCCNC(=N)N)C(=O)O [Compound 1, (Leu^8)desArg^9BK, reference compound] have Kb greater than or equal to 0.2 µM?
false (0)

API: above_or_equal(metric=Kb, cutoff=0.2 µM) for item CC(C)C[C@H](NC(=O)[C@@H]1CCCN1C(=O)[C@H](CO)NC(=O)[C@H](Cc1ccccc1)NC(=O)CNC(=O)[C@@H]1C[C@@H](O)CN1C(=O)[C@@H]1CCCN1C(=O)[C@H](CCCNC(=N)N)NC(=O)[C@@H](N)CCCCN)C(=O)O [Compound 3, Lys(Hyp^3, Leu^8)desArg^9BK]
false (0)

Numbers sourced from patent US7041785B1.
